Task for the reader: assign each of the following molecules its reported Bliss excess.
tested on: CAL-39 (Other Solid Carcinomas); assay: Bliss excess, mean over the matrix (fraction); higher = more synergy
Numbers only.

Worked set:
CN(C)CCCOc1ccc(-c2ccc3ncc4c(c3c2)n(C2CCOCC2)c(=O)n4C)cn1 [AZD0156] + O=C(c1cc(Cc2n[nH]c(=O)c3ccccc23)ccc1F)N1CCN(C(=O)C2CC2)CC1 [Olaparib] (first compound max 3 µM, partner max 3 µM) : 0.0549
NC1(C(=O)N[C@@H](CCO)c2ccc(Cl)cc2)CCN(c2ncnc3[nH]ccc23)CC1 [Capivasertib] + CCN(CCO)CCCOc1ccc2c(Nc3cc(CC(=O)Nc4cccc(F)c4)[nH]n3)ncnc2c1 [AZD2811] (first compound max 10 µM, 7x7, partner max 1 µM) : -0.051

QUERY: Need Bliss excess, item CN(CCO)CC[C@H](CSc1ccccc1)Nc1ccc(S(=O)(=O)NC(=O)c2ccc(N3CCC([C@@H](O)c4ccccc4-c4ccc(Cl)cc4)CC3)cc2)cc1S(=O)(=O)C(F)(F)F [AZD4320] + Nc1ccn([C@@H]2O[C@H](CO)[C@@H](O)C2(F)F)c(=O)n1 [Gemcitabine] (first compound max 1 µM, 7x7, partner max 0.3 µM)
RESULT: 0.0174

----------
Task for the reader: assign each of the following compounds its reported combination Emax.
tested on: KG-1 (Acute Myeloid Leukemia); assay: combination Emax (second highest fraction inhibited in the dose matrix, 72 h); higher = more inhibition; extreme values may be limits of the assay
Answers are plain numbers.

Cc1cc2ncnn2cc1Nc1ncc2c(n1)n(C1CCOCC1)c(=O)n2C [AZD7648] + CN(C)CCCOc1ccc(-c2ccc3ncc4c(c3c2)n(C2CCOCC2)c(=O)n4C)cn1 [AZD0156] (first compound max 10 µM, 7x7, partner max 1 µM) : 0.323

QUERY: Checklist item: combination Emax tested on KG-1 (Acute Myeloid Leukemia), entry COc1nnc2ccc(N3CCC(c4ccc(OCCN5CCN(C)C(=O)[C@H]5C)cc4)CC3)nn12 [AZD5153] + CCN(CCO)CCCOc1ccc2c(Nc3cc(CC(=O)Nc4cccc(F)c4)[nH]n3)ncnc2c1 [AZD2811] (first compound max 1 µM, 7x7, partner max 1 µM) , value?
RESULT: 0.789

----------
system: SNG-M (Endometrial Carcinoma); experiment: Bliss excess, mean over the matrix (fraction); higher = more synergy
Entry class follows Bliss excess: low value = under -0.04, medium value = from -0.04 up to -0.006, high value = -0.006 and over

Previously resolved entries follow.
Cc1c2c(nn1C)CSCc1cc(n(C)n1)CSc1cc(c3ccccc3c1)OCCCc1c(C(=O)O)n(C)c3c-2c(Cl)ccc13 [AZD5991] + C1CN(CCC1(C(=O)N[C@@H](CCO)C2=CC=C(C=C2)Cl)N)C3=NC=NC4=C3C=CN4 [Capivasertib] (first compound max 1 µM, 7x7, partner max 3 µM) : medium value
CC(=O)c1c(C)c2cnc(Nc3ccc(N4CCNCC4)cn3)nc2n(C2CCCC2)c1=O [Palbociclib] + Cn1cnc2c(F)c(Nc3ccc(Br)cc3Cl)c(C(=O)NOCCO)cc21 [Selumetinib] (first compound max 10 µM, 7x7, partner max 10 µM) : low value
CC1(C)CCC(CN2CCN(c3ccc(C(=O)NS(=O)(=O)c4ccc(NCC5CCOCC5)c([N+](=O)[O-])c4)c(Oc4cnc5[nH]ccc5c4)c3)CC2)=C(c2ccc(Cl)cc2)C1 [Venetoclax] + C=CCn1c(=O)c2cnc(Nc3ccc(N4CCN(C)CC4)cc3)nc2n1-c1cccc(C(C)(C)O)n1 [AZD1775] (first compound max 1 µM, partner max 1 µM) : high value
Cc1c2c(nn1C)CSCc1cc(n(C)n1)CSc1cc(c3ccccc3c1)OCCCc1c(C(=O)O)n(C)c3c-2c(Cl)ccc13 [AZD5991] + Nc1ccn([C@@H]2O[C@H](CO)[C@@H](O)C2(F)F)c(=O)n1 [Gemcitabine] (first compound max 1 µM, 7x7, partner max 0.3 µM) : medium value
C[C@@H]1COCCN1c1cc(C2([S@](C)(=N)=O)CC2)nc(-c2ccnc3[nH]ccc23)n1 [AZD6738] + C1CC(C1)(C(=O)[O-])C(=O)[O-].N.N.[Pt+2] [Carboplatin] (first compound max 10 µM, 7x7, partner max 10 µM) : low value

QUERY: Note: place this compound into its band. Item: C=CCn1c(=O)c2cnc(Nc3ccc(N4CCN(C)CC4)cc3)nc2n1-c1cccc(C(C)(C)O)n1 [AZD1775] + Nc1ccn([C@@H]2O[C@H](CO)[C@@H](O)C2(F)F)c(=O)n1 [Gemcitabine] (first compound max 1 µM, partner max 0.3 µM)
RESULT: medium value

QUERY: Note: place this compound into its band. Item: CC1(C)CCC(CN2CCN(c3ccc(C(=O)NS(=O)(=O)c4ccc(NCC5CCOCC5)c([N+](=O)[O-])c4)c(Oc4cnc5[nH]ccc5c4)c3)CC2)=C(c2ccc(Cl)cc2)C1 [Venetoclax] + CCN(CCO)CCCOc1ccc2c(Nc3cc(CC(=O)Nc4cccc(F)c4)[nH]n3)ncnc2c1 [AZD2811] (first compound max 1 µM, 7x7, partner max 1 µM)
RESULT: medium value

The origin of these recorded values is the supplement of paper PMC11061612.
